Assay: Oral bioavailability in mice (serum LC/MS)
Format: in vivo
Conditions: mouse, C57BL/6 mice, 1 μmol oral vs 500 nmol i.v., AUC method
measured-parameter: bioavailability

Reported bioavailability ( Cn1c2ccccc2c2nc(SCC(=O)NC3CCCCC3)n(-c3ccccc3)c(=O)c21 [Compound 42] ) = ~15%

* * *

Target: mouse TLR4 (Mus musculus, UniProt Q9JHF9+Q9QUK6)
Construct: host or cells: HEK293 (HEK Blue) cells with NFκB/SEAP reporter
Sequence (Q9QUK6 26-835): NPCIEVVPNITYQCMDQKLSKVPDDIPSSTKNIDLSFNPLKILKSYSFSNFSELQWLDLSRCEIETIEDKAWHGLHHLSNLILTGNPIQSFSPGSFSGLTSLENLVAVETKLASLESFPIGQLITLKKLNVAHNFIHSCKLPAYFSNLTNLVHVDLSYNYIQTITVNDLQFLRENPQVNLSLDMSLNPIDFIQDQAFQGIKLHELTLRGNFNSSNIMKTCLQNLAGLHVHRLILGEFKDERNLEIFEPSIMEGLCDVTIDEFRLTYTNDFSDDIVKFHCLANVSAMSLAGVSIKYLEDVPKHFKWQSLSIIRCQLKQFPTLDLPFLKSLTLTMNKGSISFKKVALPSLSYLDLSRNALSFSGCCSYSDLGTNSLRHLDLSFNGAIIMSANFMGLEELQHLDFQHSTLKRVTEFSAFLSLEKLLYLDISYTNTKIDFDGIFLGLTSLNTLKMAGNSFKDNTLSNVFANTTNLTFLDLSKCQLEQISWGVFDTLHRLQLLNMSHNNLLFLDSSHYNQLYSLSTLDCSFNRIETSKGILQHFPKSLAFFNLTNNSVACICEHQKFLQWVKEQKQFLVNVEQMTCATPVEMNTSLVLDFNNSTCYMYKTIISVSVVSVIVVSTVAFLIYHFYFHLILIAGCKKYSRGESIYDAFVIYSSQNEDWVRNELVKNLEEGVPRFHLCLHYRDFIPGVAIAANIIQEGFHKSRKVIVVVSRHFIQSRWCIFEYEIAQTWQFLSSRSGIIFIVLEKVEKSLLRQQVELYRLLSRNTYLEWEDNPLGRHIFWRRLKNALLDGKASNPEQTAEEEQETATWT
Sequence (Q9JHF9 19-160): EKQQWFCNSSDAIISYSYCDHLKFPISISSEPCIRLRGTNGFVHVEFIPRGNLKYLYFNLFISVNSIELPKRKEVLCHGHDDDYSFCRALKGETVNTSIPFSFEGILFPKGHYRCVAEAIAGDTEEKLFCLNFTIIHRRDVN
Test: Murine TLR4 HEK Blue NFκB/SEAP reporter assay
Type: cell-based
Conditions: mTLR4 HEK transfectoma, 312 nM to 10 μM; Cmpd 1 set at 100
Could you mark each record True if its mouse TLR4, area under curve (AUC) values normalized to Cmpd 1 falls strictly under 20, and False if it equals or exceeds it?

O=C(CSc1nc2c([nH]c3ccccc32)c(=O)n1C1CCCCC1)NC1CCCC1 [Compound 41] :: True
CCCCCn1c2ccccc2c2nc(SCC(=O)NC3CCCCC3)n(-c3ccccc3)c(=O)c21 [Compound 49] :: True
NC(=O)Cn1c2ccccc2c2nc(SCC(=O)NC3CCCCC3)n(-c3ccccc3)c(=O)c21 [Compound 52] :: True
O=C(CSc1nc2c([nH]c3ccccc32)c(=O)n1-c1ccccc1)NC1CCNCC1 [Compound 34] :: True
CC(C)CCNC(=O)CSc1nc2c([nH]c3ccccc32)c(=O)n1-c1ccccc1 [Compound 27] :: False
O=C(CSc1nc2c([nH]c3ccccc32)c(=O)n1CCc1ccccc1)NC1CCCCC1 [Compound 40] :: True
O=C(CSc1nc2c([nH]c3ccccc32)c(=O)n1-c1ccccc1)NC1CCCC1 [Compound 11] :: False
CCC(CC)NC(=O)CSc1nc2c([nH]c3ccccc32)c(=O)n1-c1ccccc1 [Compound 31] :: True
CC(C)CNC(=O)CSc1nc2c([nH]c3ccccc32)c(=O)n1-c1ccccc1 [Compound 26] :: False
O=C(CSc1nc2c([nH]c3ccccc32)c(=O)n1-c1ccccc1)Nc1ccc2cn[nH]c2c1 [Compound 20] :: True

Request: Quick check: does O=C(CSc1nc2c([nH]c3ccccc32)c(=O)n1-c1ccccc1)NC1CCCCCC1 [Compound 9] have mouse TLR4, area under curve (AUC) values normalized to Cmpd 1 under 20?
Result: False

Request: Quick check: does O=C(CSc1nc2c([nH]c3ccccc32)c(=O)n1C1CCCCC1)NC1CCCCC1 [Compound 36] have mouse TLR4, area under curve (AUC) values normalized to Cmpd 1 under 20?
Result: False

* * *

Biological target: mouse TLR4 (Mus musculus, UniProt Q9JHF9+Q9QUK6)
Construct: host or cells: HEK293 (HEK Blue) cells with NFκB/SEAP reporter
Test: Murine TLR4 HEK Blue NFκB/SEAP reporter assay
Type: cell-based
Settings: mTLR4 HEK transfectoma, 312 nM to 10 μM; Cmpd 1 set at 100
In this section we review reported mouse TLR4, area under curve (AUC) values normalized to Cmpd 1 values for a set of compounds.
// return just the number, without any unit appended

Reference set, count: 5
O=C(CSc1nc2c([nH]c3ccccc32)c(=O)n1-c1ccccc1)Nc1nccs1 [Compound 21] :: 2
O=C(CSc1nc2c([nH]c3ccccc32)c(=O)n1-c1ccccc1)NC1CCCCCCC1 [Compound 10] :: 95
O=C(CSc1nc2c([nH]c3ccccc32)c(=O)n1-c1ccc2ccccc2c1)NC1CCCCC1 [Compound 39] :: 6
COC(=O)CCCn1c2ccccc2c2nc(SCC(=O)NC3CCCCC3)n(-c3ccccc3)c(=O)c21 [Compound 44] :: 9
CCCCCNC(=O)CSc1nc2c([nH]c3ccccc32)c(=O)n1-c1ccccc1 [Compound 24] :: 42

Reported mouse TLR4, area under curve (AUC) values normalized to Cmpd 1 ( CCC(C)CCNC(=O)CSc1nc2c([nH]c3ccccc32)c(=O)n1-c1ccccc1 (stereo not shown) [Compound 29] ) = 29

Reported mouse TLR4, area under curve (AUC) values normalized to Cmpd 1 ( O=C(CSc1nc2c([nH]c3ccccc32)c(=O)n1-c1ccccc1)Nc1ccc2ccccc2c1 [Compound 18] ) = 2

Reported mouse TLR4, area under curve (AUC) values normalized to Cmpd 1 ( CC(C)(C)CCNC(=O)CSc1nc2c([nH]c3ccccc32)c(=O)n1-c1ccccc1 [Compound 28] ) = 126

Reported mouse TLR4, area under curve (AUC) values normalized to Cmpd 1 ( CCCC(C)NC(=O)CSc1nc2c([nH]c3ccccc32)c(=O)n1-c1ccccc1 (stereo not shown) [Compound 30] ) = 17

Reported mouse TLR4, area under curve (AUC) values normalized to Cmpd 1 ( O=C(CSc1nc2c([nH]c3ccccc32)c(=O)n1-c1ccccc1)NCC1CCCO1 (stereo not shown) [Compound 33] ) = 21

Reported mouse TLR4, area under curve (AUC) values normalized to Cmpd 1 ( CCCCCCNC(=O)CSc1nc2c([nH]c3ccccc32)c(=O)n1-c1ccccc1 [Compound 25] ) = 4

Reported mouse TLR4, area under curve (AUC) values normalized to Cmpd 1 ( N#CCn1c2ccccc2c2nc(SCC(=O)NC3CCCCC3)n(-c3ccccc3)c(=O)c21 [Compound 51] ) = 55

Reported mouse TLR4, area under curve (AUC) values normalized to Cmpd 1 ( CCCCCCCCCCCCn1c2ccccc2c2nc(SCC(=O)NC3CCCCC3)n(-c3ccccc3)c(=O)c21 [Compound 50] ) = 4
